# Tested on: SK-OV-3
# Method: NCI tumour cell line growth inhibition, 48 h
Active and inactive are the calls of the source. Rule as the data show it: active = GI50 up to about 1.1 µM and inactive = higher.
Known GI50 of a selection of compounds

- Compound: "COc1ccc(C(=O)Nc2ccn(CCOC(=O)c3ccc(OC)cc3)c(=O)n2)cc1"
  Measured Target: "SK-OV-3"
  GI50: "> 100 µM (inactive)"
- Compound: "CC1CCCc2c(C#N)c(N)nc(-c3ccc(Cl)cc3)c21 (configuration not stated)"
  Measured Target: "SK-OV-3"
  GI50: "38.1 µM (inactive)"
- Compound: "COc1nc(-c2c[nH]c3ccccc23)cnc1N"
  Measured Target: "SK-OV-3"
  GI50: "30.9 µM (inactive)"
- Compound: "CC(=O)Nc1c(C)cc2c(nc3n2CCC3O)c1[N+](=O)[O-] (configuration not stated)"
  Measured Target: "SK-OV-3"
  GI50: "> 100 µM (inactive)"
- Compound: "O=C(/C=C/c1cccc([N+](=O)[O-])c1)c1ccc([N+](=O)[O-])cc1"
  Measured Target: "SK-OV-3"
  GI50: "> 100 µM (inactive)"
- Compound: "CC12OC3(C(O)C1O)C(C(=O)O[C@H]3CO[Si](C)(C)C(C)(C)C)C2S(=O)(=O)c1ccccc1 (some centres not stated)"
  Measured Target: "SK-OV-3"
  GI50: "> 100 µM (inactive)"
- Compound: "O=C(O)c1cc(=O)c2c([nH]c3ccccc32)s1"
  Measured Target: "SK-OV-3"
  GI50: "> 100 µM (inactive)"
- Compound: "OCCN(C1=NCCN1)/[N+](=C\\c1ccccn1)[CH-]c1ccccn1"
  Measured Target: "SK-OV-3"
  GI50: "> 100 µM (inactive)"
- Compound: "COC(=O)CCNC(=O)OCc1ccccc1"
  Measured Target: "SK-OV-3"
  GI50: "> 100 µM (inactive)"
- Compound: "Clc1ccc(OCc2nnc3sc(-c4ccc(-c5ccc(Cl)cc5Cl)o4)nn23)cc1"
  Measured Target: "SK-OV-3"
  GI50: "> 100 µM (inactive)"
- Compound: "COc1ccc(-c2cc3ccccc3[nH]c2=O)cc1OC"
  Measured Target: "SK-OV-3"
  GI50: "> 100 µM (inactive)"
- Compound: "COCN1C(=O)[C@@H]2C[C@@H](O)CN2C(=O)c2ccccc21"
  Measured Target: "SK-OV-3"
  GI50: "> 100 µM (inactive)"
- Compound: "CC1=NN(C(=O)c2cc(Cl)cc([N+](=O)[O-])c2)C(=O)C1/N=N/c1ccccc1C(=O)O (configuration not stated)"
  Measured Target: "SK-OV-3"
  GI50: "> 100 µM (inactive)"
- Compound: "N#CC(N)(C(=O)C(=O)NCCCNC(=O)C(=O)C(N)(C#N)c1ccc(Cl)cc1)c1ccc(Cl)cc1 (configuration not stated)"
  Measured Target: "SK-OV-3"
  GI50: "> 100 µM (inactive)"
- Compound: "CC(C)NC(=O)OCc1c(COC(=O)NC(C)C)c(-c2cc[n+](COC(=O)C3CCCCC3)cc2)n2c1CCC2"
  Measured Target: "SK-OV-3"
  GI50: "> 100 µM (inactive)"
- Compound: "O=C1c2ccccc2C(=O)[C@@]23O[C@@]12C1(Oc2cccc4cccc(c24)O1)[C@@H]1O[C@@H]1[C@@H]3O"
  Measured Target: "SK-OV-3"
  GI50: "15.1 µM (inactive)"
- Compound: "COc1cc2c3c(c1OC)-c1c(ccc4c1OCO4)CC3(C#N)N(C(=O)c1ccccc1)CC2 (configuration not stated)"
  Measured Target: "SK-OV-3"
  GI50: "50.5 µM (inactive)"
- Compound: "Cc1nnc(N)nc1/C=C\\c1cccs1"
  Measured Target: "SK-OV-3"
  GI50: "36.5 µM (inactive)"
- Compound: "O=C(O)CCSC(=S)Nc1cccc(F)c1"
  Measured Target: "SK-OV-3"
  GI50: "> 100 µM (inactive)"
- Compound: "COc1cc2cc[n+](C)c(Cc3ccccc3)c2cc1OC"
  Measured Target: "SK-OV-3"
  GI50: "> 100 µM (inactive)"
- Compound: "C=C1CC2CC(=O)C(O)C(C1)C2 (configuration not stated)"
  Measured Target: "SK-OV-3"
  GI50: "> 100 µM (inactive)"
- Compound: "Cc1ccc(C2(c3ccc(C)cc3)SC(=C(C#N)C#N)c3ccccc32)cc1"
  Measured Target: "SK-OV-3"
  GI50: "> 100 µM (inactive)"
